Method: Preliminary solubility assessment in solvents
Type: physicochemical
Condition notes: heptane, organic solvent or mixture, thermodynamic from solid, Heptane, 20 vol, RT; read-out: Solubility assessment 20 vol
Measurement type: solubility

Would you mind telling me what solubility value was observed for O=C(O)c1cccc(C#Cc2ccc(COC3CCOCC3)cc2)c1-c1ccc2cc[nH]c2c1 [Amorphous (I) free acid] ?
< 50 mg/mL

---

Method: Preliminary solubility assessment in solvents
Assay type: physicochemical
Condition notes: acetone/5% water, organic solvent or mixture, thermodynamic from solid, Acetone/5% water, 10 vol, RT; read-out: Solubility assessment 10 vol
Measurement type: solubility

Would you mind telling me what solubility value was observed for O=C(O)c1cccc(C#Cc2ccc(COC3CCOCC3)cc2)c1-c1ccc2cc[nH]c2c1 [Amorphous (I) free acid] ?
> 100 mg/mL

---

Method: Preliminary solubility assessment in solvents
Type: physicochemical
Condition notes: anisole, organic solvent or mixture, thermodynamic from solid, Anisole, 10 vol, RT; read-out: Solubility assessment 10 vol
Method: Amorphous (I) free acid (post washing, ca. 20 mg) was dissolved or suspended in a range of solvent systems (using 10 or 20 volumes) at RT. Solutions were placed in a fridge at 4° C. overnight. If no solid was obtained, the solution was then allowed to evaporate at RT. Suspensions were matured between RT-50° C. heat-cool cycles (8 h per cycle) for up to 7 days. Solids were analyzed by XRPD.
Measurement type: solubility

Would you mind telling me what solubility value was observed for O=C(O)c1cccc(C#Cc2ccc(COC3CCOCC3)cc2)c1-c1ccc2cc[nH]c2c1 [Amorphous (I) free acid] ?
> 100 mg/mL

---

Method: Preliminary solubility assessment in solvents
Assay type: physicochemical
Condition notes: toluene, organic solvent or mixture, thermodynamic from solid, Toluene, 10 vol, RT; read-out: Solubility assessment 10 vol
Description: Amorphous (I) free acid (post washing, ca. 20 mg) was dissolved or suspended in a range of solvent systems (using 10 or 20 volumes) at RT. Solutions were placed in a fridge at 4° C. overnight. If no solid was obtained, the solution was then allowed to evaporate at RT. Suspensions were matured between RT-50° C. heat-cool cycles (8 h per cycle) for up to 7 days. Solids were analyzed by XRPD.
Measurement type: solubility

Would you mind telling me what solubility value was observed for O=C(O)c1cccc(C#Cc2ccc(COC3CCOCC3)cc2)c1-c1ccc2cc[nH]c2c1 [Amorphous (I) free acid] ?
< 100 mg/mL

---

Method: Preliminary solubility assessment in solvents
Assay type: physicochemical
Condition notes: ethanol/5% water, organic solvent or mixture, thermodynamic from solid, Ethanol/5% water, 10 vol, RT; read-out: Solubility assessment 10 vol
Measurement type: solubility

Would you mind telling me what solubility value was observed for O=C(O)c1cccc(C#Cc2ccc(COC3CCOCC3)cc2)c1-c1ccc2cc[nH]c2c1 [Amorphous (I) free acid] ?
> 100 mg/mL

---

Method: Preliminary solubility assessment in solvents
Format: physicochemical
Condition notes: nitromethane, organic solvent or mixture, thermodynamic from solid, Nitromethane, 10 vol, RT; read-out: Solubility assessment 10 vol
Measurement type: solubility

Would you mind telling me what solubility value was observed for O=C(O)c1cccc(C#Cc2ccc(COC3CCOCC3)cc2)c1-c1ccc2cc[nH]c2c1 [Amorphous (I) free acid] ?
< 100 mg/mL

---

Method: Preliminary solubility assessment in solvents
Assay type: physicochemical
Condition notes: methylisobutyl ketone (printed Methylisoburyl Ketone), organic solvent or mixture, thermodynamic from solid, Methylisoburyl Ketone, 10 vol, RT; read-out: Solubility assessment 10 vol
Measurement type: solubility

Would you mind telling me what solubility value was observed for O=C(O)c1cccc(C#Cc2ccc(COC3CCOCC3)cc2)c1-c1ccc2cc[nH]c2c1 [Amorphous (I) free acid] ?
> 100 mg/mL

src = patent US12116359B2
